biological target: APOL1 (Homo sapiens, UniProt O14791); experiment: MultiTox-Fluor Multiplex Cytotoxicity Assay, tet-inducible APOL1 T-REx-HEK293 cells (G0, G1 or G2 clone not specified for Table 20); details: tet-induced, 24 hours with compound, ratio of dead to live cells, read-out: IP50 (i.e., IC50 for cell proliferation)
pIC50: −log10 of the molar value.
compounds and their reported pIC50

Solved entries:
1. CS(=O)(=O)CCn1cc(CN2CCC3(CC2)C(=O)Nc2ccc(Cl)cc23)cn1 [Compound 1] = 6.30 to 7.30
2. Cc1ccc2c(c1)C1(CCN(Cc3cnn(C)c3)C(C)C1)OCC2 (stereo not drawn) [Compound 93] = ≥ 7.30
3. CNC(=O)c1ccc(CN2CCC3(CC2)OC(C(N)=O)c2ccc(Cl)cc23)cc1 (stereo not drawn) [Compound 233] = ≥ 7.30
4. CN1C(=O)C2(CCN(Cc3cnn(CCS(C)(=O)=O)c3)CC2)c2cc(OC(F)(F)F)ccc21 [Compound 87] = ≤ 6.30
5. C[C@H]1C[C@@]2(CCN1Cc1cnn(-c3ccccn3)c1)OCCc1ccc(Cl)cc12 [Compound 117] = ≥ 7.30
6. C[C@H]1C[C@@]2(CCN1Cc1cn(Cc3ccnc(CO)c3)nn1)OCCc1ccc(Cl)cc12 [Compound 142] = 6.30 to 7.30
7. CS(=O)(=O)CCn1cc(CN2CCC3(CC2)OC(C(N)=O)c2ccc(Cl)cc23)nn1 (stereo not drawn) [Compound 208] = ≤ 6.30
8. CNc1cnc(Cn2cc(CN3CC[C@]4(C[C@@H]3C)OCCc3ccc(Cl)cc34)nn2)cn1 [Compound 162] = 6.30 to 7.30

Consider now this further compound.
Reported pIC50 ( CC(O)Cn1cc(CN2CC[C@]3(C[C@@H]2C)OCCc2ccc(Cl)cc23)nn1 (stereo partly drawn) [Compound 144] ) = ≥ 7.30

###

Target: APOL1 (Homo sapiens, UniProt O14791)
Sequence (O14791 1-398): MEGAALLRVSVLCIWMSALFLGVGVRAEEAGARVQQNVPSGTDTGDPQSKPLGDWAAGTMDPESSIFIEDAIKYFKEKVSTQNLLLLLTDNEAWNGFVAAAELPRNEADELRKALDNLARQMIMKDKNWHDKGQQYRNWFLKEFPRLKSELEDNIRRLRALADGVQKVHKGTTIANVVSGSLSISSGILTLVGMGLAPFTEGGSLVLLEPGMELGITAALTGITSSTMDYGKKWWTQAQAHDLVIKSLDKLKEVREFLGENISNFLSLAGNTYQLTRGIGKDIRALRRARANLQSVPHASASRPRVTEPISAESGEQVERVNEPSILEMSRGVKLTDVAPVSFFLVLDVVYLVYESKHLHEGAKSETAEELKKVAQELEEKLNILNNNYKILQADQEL
Experiment: MultiTox-Fluor Multiplex Cytotoxicity Assay, tet-inducible APOL1 T-REx-HEK293 cells (G0, G1 or G2 clone not specified for Table 20)
Conditions: tet-induced, 24 hours with compound, ratio of dead to live cells, read-out: IP50 (i.e., IC50 for cell proliferation)
Description: Human embryonic kidney (HEK293) cell lines containing a tet-inducible expression system (T-REx™; Invitrogen, Carlsbad, CA) and Adeno-associated virus site 1 pAAVS1-Puro-APOL1 G0 or pAAVS1-Puro-APOL1 G1 or pAAVS1-Puro-APOL1 G2 Clones G0 DC2.13, G1 DC3.25, and G2 DC4.44 were grown in a T-225 flask at ˜90% confluency in cell growth media (DMEM, 10% Tet-free FBS, 2 mM L-glutamine, 100 Units/mL penicillin-streptomycin, 5 μg/mL blasticidin S HCl, 1 μg/mL puromycin dihydrochloride). […]
pIC50: −log10 of the molar value.
We begin with a simple list: items and their reported pIC50.

Recorded pIC50, per entry:
1. C[C@H]1CC2(CCN1Cc1cnn(CCS(C)(=O)=O)c1)CC(O)c1ccc(Cl)cc12 (single isomer, unassigned) [Compound 306] = ≥ 7.30
2. CNC(=O)C1OC2(CCN(Cc3cnn(-c4cccc(C(F)(F)F)c4)c3)CC2)c2cc(Cl)ccc21 (stereo not shown) = ≥ 7.30

pIC50 on APOL1 (Homo sapiens, UniProt O14791) for `C[C@H]1C[C@@]2(CCN1Cc1cnn(CC(C)(CO)CO)c1)OCCc1ccc(Cl)cc12` is ≥ 7.30

The reported pIC50 value, APOL1 (Homo sapiens, UniProt O14791), for `C[C@H]1C[C@@]2(CCN1Cc1cnn(C)c1)OCCc1ccc(Cl)cc12` reads ≥ 7.30

Tested system APOL1 (Homo sapiens, UniProt O14791); pIC50 recorded for CC1(n2cc(CN3CCC4(CC3)OC(C(N)=O)c3ccc(Cl)cc34)cn2)CCS(=O)(=O)C1 (stereo not shown) was ≤ 6.30

Hello, the source for this data is patent US20250195483A1, in case you need it.
